Values from patent US20200360391A1

Tested on: rat coronary artery complete ischemia model
assayProtocol: Model of ischemia (MI) by rat coronary artery complete ligation (Tests 1 and 2): echocardiography, body weight
testConditions: MI Test 2; 21 Day; B 150, G 5, I 30, C 10 mg/kg p.o. b.i.d.; B MS 100, C MS 50, I MS 30 mg/kg s.c. single injection; mean
Counter-ions that a name gives are not always drawn.
observationType: Body weight (g)
Please respond with the number in g and leave the unit unwritten.

>  <molecule>
CCCc1nn(C)c2c(=O)[nH]c(-c3cc(S(=O)(=O)N4CCN(C)CC4)ccc3OCC)nc12 [Compound I, Sildenafil citrate]

>  <testedSystem>
rat coronary artery complete ischemia model

>  <Body weight, g>
278.3

$$$$
>  <molecule>
O=C(O)/C=C/c1ccc(Cn2ccnc2)cc1 [Compound C, Ozagrel hydrochloride hydrate]

>  <testedSystem>
rat coronary artery complete ischemia model

>  <Body weight, g>
292.8

$$$$
>  <molecule>
CN(C)C(=O)COC(=O)Cc1ccc(OC(=O)c2ccc(NC(=N)N)cc2)cc1 [Compound B, Camostat mesilate]

>  <testedSystem>
rat coronary artery complete ischemia model

>  <Body weight, g>
273.9

$$$$

Req: Any idea what its Body weight is? The molecule is COC(=O)c1ccc2c(c1)NC(=O)/C2=C(\Nc1ccc(N(C)C(=O)CN2CCN(C)CC2)cc1)c1ccccc1 [Compound G, Nintedanib ethanesulfonate]
Resp: 290.5

---

Test system: spontaneous dilated cardiomyopathy (J2N-k) hamster model
assayProtocol: Spontaneous dilated cardiomyopathy (J2N-k) hamster model, 8-week administration from 20 weeks of age (Tests 1-3): echocardiography, body weight
testConditions: Test 2, p.o. b.i.d.
observationType: LVIDs 8 W (mm)
Please respond with the number in mm and leave the unit unwritten.

>  <molecule>
CC#CCC(C)[C@H](O)/C=C/[C@@H]1[C@H]2c3cccc(CCCC(=O)O)c3O[C@H]2C[C@H]1O (mixture of isomers) [Compound F, Beraprost sodium]

>  <LVIDs 8 W / mm>
6.3

$$$$

For the next question, use this molecule.
Req: Any idea what its LVIDs 8 W is? The molecule is Cn1c(=O)c2[nH]cnc2n(C)c1=O
Resp: 6.3

---

Test system: rat coronary artery complete ischemia model
assayProtocol: Model of ischemia (MI) by rat coronary artery complete ligation (Tests 1 and 2): echocardiography, body weight
testConditions: MI Test 2; 14 Day; B 150, G 5, I 30, C 10 mg/kg p.o. b.i.d.; B MS 100, C MS 50, I MS 30 mg/kg s.c. single injection; mean
Where a name gives a salt, the structure may show the parent alone.
Entries and their Body weight
Form entry: enter the amount, then its unit.

These recorded examples may help you get a feel for the data.
>  <compound>
O=C(O)/C=C/c1ccc(Cn2ccnc2)cc1 [Compound C, Ozagrel hydrochloride hydrate]

>  <testedSystem>
rat coronary artery complete ischemia model

>  <Body weight>
273.3 g

$$$$
>  <compound>
CN(C)C(=O)COC(=O)Cc1ccc(OC(=O)c2ccc(NC(=N)N)cc2)cc1 [Compound B, Camostat mesilate]

>  <testedSystem>
rat coronary artery complete ischemia model

>  <Body weight>
262.4 g

$$$$
>  <compound>
CCCc1nn(C)c2c(=O)[nH]c(-c3cc(S(=O)(=O)N4CCN(C)CC4)ccc3OCC)nc12 [Compound I, Sildenafil citrate]

>  <testedSystem>
rat coronary artery complete ischemia model

>  <Body weight>
263.0 g

$$$$

For the next question, use this compound.
Req: Record COC(=O)c1ccc2c(c1)NC(=O)/C2=C(\Nc1ccc(N(C)C(=O)CN2CCN(C)CC2)cc1)c1ccccc1 [Compound G, Nintedanib ethanesulfonate] : what is its Body weight with rat coronary artery complete ischemia model?
Resp: 273.9 g

---

Entries and their Body weight
Test system: rat coronary artery complete ischemia model
assayProtocol: Model of ischemia (MI) by rat coronary artery complete ligation (Tests 1 and 2): echocardiography, body weight
testConditions: MI Test 1, NOAEL doses; 14 Day; mean ± S.D.
Where a name gives a salt, the structure may show the parent alone.
Please respond with the number in g and leave the unit unwritten.

>  <compound>
O=C(O)/C=C/c1ccc(Cn2ccnc2)cc1 [Compound C, Ozagrel hydrochloride hydrate]

>  <Body weight / g>
261.2

$$$$
>  <compound>
CC#CCC(C)[C@H](O)/C=C/[C@@H]1[C@H]2c3cccc(CCCC(=O)O)c3O[C@H]2C[C@H]1O (mixture of isomers) [Compound F, Beraprost sodium]

>  <Body weight / g>
252.6

$$$$
>  <compound>
Cc1ccc(=O)n(-c2ccccc2)c1

>  <Body weight / g>
257.7

$$$$

Req: Record O=C(O)COc1cccc2c1CCC=C2CCO/N=C(\c1ccccc1)c1cccnc1 : what is its Body weight with rat coronary artery complete ischemia model?
Resp: 257.1

---

Test system: rat coronary artery complete ischemia model
assayProtocol: Model of ischemia (MI) by rat coronary artery complete ligation (Tests 1 and 2): echocardiography, body weight
testConditions: MI Test 2; 7 Day; B 150, G 5, I 30, C 10 mg/kg p.o. b.i.d.; B MS 100, C MS 50, I MS 30 mg/kg s.c. single injection; mean
Counter-ions that a name gives are not always drawn.
Entries and their Body weight

These recorded examples may help you get a feel for the data.
>  <compound>
CN(C)C(=O)COC(=O)Cc1ccc(OC(=O)c2ccc(NC(=N)N)cc2)cc1 [Compound B, Camostat mesilate]

>  <testedSystem>
rat coronary artery complete ischemia model

>  <result>
249.1 g

$$$$
>  <compound>
CCCc1nn(C)c2c(=O)[nH]c(-c3cc(S(=O)(=O)N4CCN(C)CC4)ccc3OCC)nc12 [Compound I, Sildenafil citrate]

>  <testedSystem>
rat coronary artery complete ischemia model

>  <result>
237.3 g

$$$$

Req: Any idea what its Body weight is? The compound is COC(=O)c1ccc2c(c1)NC(=O)/C2=C(\Nc1ccc(N(C)C(=O)CN2CCN(C)CC2)cc1)c1ccccc1 [Compound G, Nintedanib ethanesulfonate]
Resp: 248.1 g

Req: O=C(O)/C=C/c1ccc(Cn2ccnc2)cc1 [Compound C, Ozagrel hydrochloride hydrate] ?
Resp: 245.7 g

---

Tested on: rat coronary artery complete ischemia model
assayProtocol: Model of ischemia (MI) by rat coronary artery complete ligation (Tests 1 and 2): echocardiography, body weight
testConditions: MI Test 1, NOAEL doses; 1 Day (grouping); mean ± S.D.
Counter-ions that a name gives are not always drawn.
observationType: Body weight (g)
Please respond with the number in g and leave the unit unwritten.

These recorded examples may help you get a feel for the data.
>  <compound>
Cc1ccc(=O)n(-c2ccccc2)c1

>  <testedSystem>
rat coronary artery complete ischemia model

>  <Body weight / g>
232.0

$$$$
>  <compound>
CC#CCC(C)[C@H](O)/C=C/[C@@H]1[C@H]2c3cccc(CCCC(=O)O)c3O[C@H]2C[C@H]1O (mixture of isomers) [Compound F, Beraprost sodium]

>  <testedSystem>
rat coronary artery complete ischemia model

>  <Body weight / g>
230.4

$$$$
>  <compound>
O=C(O)/C=C/c1ccc(Cn2ccnc2)cc1 [Compound C, Ozagrel hydrochloride hydrate]

>  <testedSystem>
rat coronary artery complete ischemia model

>  <Body weight / g>
234.8

$$$$
>  <compound>
O=C1CCc2cc(OCCCCc3nnnn3C3CCCCC3)ccc2N1

>  <testedSystem>
rat coronary artery complete ischemia model

>  <Body weight / g>
232.4

$$$$

For the next question, use this compound.
Req: Any idea what its Body weight is? The compound is O=C(O)COc1cccc2c1CCC=C2CCO/N=C(\c1ccccc1)c1cccnc1
Resp: 231.4

---

System: rat coronary artery complete ischemia model
assayProtocol: Model of ischemia (MI) by rat coronary artery complete ligation (Tests 1 and 2): echocardiography, body weight
testConditions: MI Test 1, NOAEL doses; 7 Day; mean ± S.D.
Where a name gives a salt, the structure may show the parent alone.
observationType: Body weight (g)
Please respond with the number in g and leave the unit unwritten.

These recorded examples may help you get a feel for the data.
>  <molecule>
Cc1ccc(=O)n(-c2ccccc2)c1

>  <testedSystem>
rat coronary artery complete ischemia model

>  <scaleUnit>
g

>  <Body weight>
236.7

$$$$
>  <molecule>
O=C(O)/C=C/c1ccc(Cn2ccnc2)cc1 [Compound C, Ozagrel hydrochloride hydrate]

>  <testedSystem>
rat coronary artery complete ischemia model

>  <scaleUnit>
g

>  <Body weight>
240.0

$$$$
>  <molecule>
CC#CCC(C)[C@H](O)/C=C/[C@@H]1[C@H]2c3cccc(CCCC(=O)O)c3O[C@H]2C[C@H]1O (mixture of isomers) [Compound F, Beraprost sodium]

>  <testedSystem>
rat coronary artery complete ischemia model

>  <scaleUnit>
g

>  <Body weight>
232.3

$$$$

For the next question, use this molecule.
Req: Record O=C(O)COc1cccc2c1CCC=C2CCO/N=C(\c1ccccc1)c1cccnc1 : what is its Body weight with rat coronary artery complete ischemia model?
Resp: 237.8

---

Entries and their % FS: value of change compared with the value on Day 1
Test system: rat coronary artery complete ischemia model
assayProtocol: Model of ischemia (MI) by rat coronary artery complete ligation (Tests 1 and 2): echocardiography, body weight
testConditions: MI Test 1, NOAEL doses; 14 Day; mean ± S.D.
Counter-ions that a name gives are not always drawn.
Please respond with the number in % and leave the unit unwritten.

These recorded examples may help you get a feel for the data.
>  <compound>
CC#CCC(C)[C@H](O)/C=C/[C@@H]1[C@H]2c3cccc(CCCC(=O)O)c3O[C@H]2C[C@H]1O (mixture of isomers) [Compound F, Beraprost sodium]

>  <readoutNumber>
-2

$$$$
>  <compound>
O=C(O)COc1cccc2c1CCC=C2CCO/N=C(\c1ccccc1)c1cccnc1

>  <readoutNumber>
0

$$$$
>  <compound>
Cc1ccc(=O)n(-c2ccccc2)c1

>  <readoutNumber>
-2

$$$$

Req: Any idea what its % FS: value of change compared with the value on Day 1 is? The compound is O=C(O)/C=C/c1ccc(Cn2ccnc2)cc1 [Compound C, Ozagrel hydrochloride hydrate]
Resp: -1

Req: O=C1CCc2cc(OCCCCc3nnnn3C3CCCCC3)ccc2N1 ?
Resp: -2
